Source of measurements: the supplement of paper PMC10724198

- Tested on: Saccharomyces cerevisiae
- ASSAY METHOD TEXT: protein stability index of tFT-peptide fusion (C-terminal peptide) (PSI (0-1 scale)); higher = more stable (slower turnover);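 further: PSI is a weighted mean of sequencing reads over stability bins, variants kept only with over 10 reads, mCherry proximal and sfGFP distal, peptide attached via GGGS linker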
- ASSAY SETUP: genetic background: das1 deletion; temperature: 37 C
Binary classification by protein stability index, with 0.5 as an inclusive lower bound for criterion met; all other cases are criterion not met.

As a guide, the following entries are already answered.
INSERT INTO measurements (sequence_string, class_assignment) VALUES
  ('PCLLRYLVHPFP', 'criterion met'),
  ('NFKELMEKSKYR', 'criterion met'),
  ('AFSISPFRLRMV', 'criterion met'),
  ('LYVLNILSFVCV', 'criterion not met'),
  ('QGGTWKKLVKMI', 'criterion met'),
  ('VTVWVFVFLRGL', 'criterion not met'),
  ('LAVVLVWVPGRW', 'criterion met'),
  ('VVSLGGWCLYIY', 'criterion not met');

Decide: protein stability index of FGVSLFLPLSVV >= 0.5? criterion not met

Kindly determine if protein stability index recorded for GWRRRIWLCRLQ is above or exactly 0.5. criterion met

----------
- System: Saccharomyces cerevisiae
- ASSAY METHOD TEXT: protein stability index of tFT-peptide fusion (C-terminal peptide) (PSI (0-1 scale)); higher = more stable (slower turnover)
- ASSAY SETUP: genetic background: cdc53-1; temperature: 37 C
Cut-off 0.4 on protein stability index, inclusive. At or above means Y; below means N.

// below: answered sequences
INSERT INTO assay_data (sequence_string, class_assignment) VALUES
  ('TFLVWSLMAGDR', 'Y'),
  ('GVLFHIVLHFMV', 'N'),
  ('VVSLGGWCLYIY', 'Y'),
  ('FLAWSVGILCRV', 'N'),
  ('VVACCVVFWVLP', 'Y'),
  ('KKHKKGQKQKIN', 'Y'),
  ('AFRFFWFFFFTS', 'Y'),
  ('LWVTRVYCLLVC', 'N'),
  ('TEVGAWLLLCRC', 'N'),
  ('LSGIILGWSVSG', 'Y');

Would you kindly look at the next entry?
Identify whether the reported protein stability index of the following sequence is 0.4 or greater: GVMSICRWMISV Y

----------
- Test system: Saccharomyces cerevisiae
- ASSAY METHOD TEXT: protein stability index of tFT-peptide fusion (C-terminal peptide) (PSI (0-1 scale)); higher = more stable (slower turnover)
- ASSAY SETUP: genetic background: wild type; temperature: 30 C
Kindly state protein stability index for each of the entries shown.
Numbers only.

INSERT INTO assay_data (sequence_string, result_number) VALUES
  ('ILGGVSPSAFVI', 0.664),
  ('ELNENKKKKEHL', 0.714),
  ('VWVWVGGGSRGC', 0.712),
  ('VAVRARRWASGP', 0.727),
  ('RERLSRGGEGFE', 0.693),
  ('PPSPPDSPPPAS', 0.665),
  ('YLEQALLDVQTD', 0.756),
  ('GGQEEWFGGAWL', 0.727),
  ('PPAPRPPLFPYP', 0.697),
  ('RPPFRVYDYPLL', 0.671);

Fill in protein stability index for each of the 8 sequences listed.
1. HCVSPKPFLKSE
2. SSPLRVLGPESG
3. FVHSTLPPSFSI
4. FRLLSTINSCCV
5. RVRAITRKCGQY
6. GRPRSSAVARSA
7. GFQIVCSAGERV
8. RLGWTTSEELWC

1. 0.695
2. 0.689
3. 0.735
4. 0.612
5. 0.656
6. 0.769
7. 0.611
8. 0.657

Sample GREGTEIGKWRE ; protein stability index observed: 0.74

----------
- System: Saccharomyces cerevisiae
- ASSAY METHOD TEXT: protein stability index of tFT-peptide fusion (C-terminal peptide) (PSI (0-1 scale)); higher = more stable (slower turnover)
- ASSAY SETUP: genetic background: cdc53-1; temperature: 37 C
Would you mind labelling by protein stability index? At or over 0.6 is MET, under is NOT MET.

INSERT INTO assay_data (sequence_string, class_assignment) VALUES
  ('ISLSSLYVVMYV', 'NOT MET'),
  ('GGLFRWCVWRIV', 'NOT MET'),
  ('AFCGRRGHQFYN', 'MET');

Is reported protein stability index greater than or equal to 0.6 here: FLASLCFFPLLC NOT MET

Is the recorded value of protein stability index equal to or greater than 0.6 for this sequence? LFSVLVFIYFVM NOT MET

hey, is protein stability index for this one >= 0.6? VFDFVFHLRFVV NOT MET

Given the entry GVQFRRPLIPIY , answer whether its protein stability index meets or surpasses 0.6. NOT MET

----------
- Test system: Saccharomyces cerevisiae
- ASSAY METHOD TEXT: protein stability index of tFT-peptide fusion (C-terminal peptide) (PSI (0-1 scale)); higher = more stable (slower turnover)
- ASSAY SETUP: genetic background: wild type; temperature: 30 C
protein stability index vs 0.6: at or above is True, below is False.

INSERT INTO measurements (sequence_string, test_target, class_assignment) VALUES
  ('PPLPPSSPPPSS', 'Saccharomyces cerevisiae', 'True'),
  ('GRAVCRALVEAR', 'Saccharomyces cerevisiae', 'False'),
  ('STGLITYNYSVC', 'Saccharomyces cerevisiae', 'True'),
  ('GARVGDRALASG', 'Saccharomyces cerevisiae', 'True'),
  ('RNNLHKKIRRGY', 'Saccharomyces cerevisiae', 'False'),
  ('QKKKKNRKQKIK', 'Saccharomyces cerevisiae', 'True'),
  ('VICRGGHVLLES', 'Saccharomyces cerevisiae', 'True'),
  ('DSASFAFCCFCD', 'Saccharomyces cerevisiae', 'True'),
  ('TYRGKIVAPGVL', 'Saccharomyces cerevisiae', 'True'),
  ('KKKKKKRQKNTK', 'Saccharomyces cerevisiae', 'True');

Check the entry LLCSLGFRFSLF : does protein stability index equal or exceed 0.6? False

Could you please find out whether VFLPVMVFFTFS has protein stability index that meets 0.6 or exceeds it? False

Record SRSFVPRNSPRI ; criterion: protein stability index no lower than 0.6. Met? True

----------
- Test system: Saccharomyces cerevisiae
- ASSAY METHOD TEXT: protein stability index of tFT-peptide fusion (C-terminal peptide) (PSI (0-1 scale)); higher = more stable (slower turnover)
- ASSAY SETUP: genetic background: wild type; temperature: 30 C
Can you tell me protein stability index for the items I'm about to list?

// solved cases for protein stability index follow
INSERT INTO measurements (sequence_string, property_measured, result) VALUES
  ('HQLHLMRDSIRN', 'protein stability index', 0.716),
  ('IWGSILGVEANV', 'protein stability index', 0.685),
  ('PYWYPRASRGAL', 'protein stability index', 0.699),
  ('LWRFMLGQGFEG', 'protein stability index', 0.726),
  ('SPRSLLTPHPHM', 'protein stability index', 0.686);

Please report protein stability index for every entry that follows.
1. VSFGELGVEVVG
2. PRSPTPPPSYSP
3. RNAEVWDNLFEG
4. LAFMYFVCPRLA
5. LSTMPLFPSLHR
6. GSLLNLSLRWLV
7. GAEPTPYVAEAI
8. GLRIRFSNSYVG

1: 0.451; 2: 0.715; 3: 0.697; 4: 0.369; 5: 0.731; 6: 0.242; 7: 0.701; 8: 0.688

Record protein stability index for all entries; do not skip any.
1. TSPLPRPPPPSY
2. SVGGWIARTAIV
3. GVRSGAGGQVVG
4. YTKTGRQRHHCR
5. KKKRIRNEYKKR
6. PPPLSLTPPFLY
7. DAPSPPLTGVSR
8. LRKSSIQRQKKR

1: 0.61; 2: 0.661; 3: 0.701; 4: 0.677; 5: 0.68; 6: 0.673; 7: 0.645; 8: 0.653

For each listed entry, give its protein stability index.
1. SRVVSPLFNLCL
2. PPLPAPPAPAVQ
3. PLPFLPPPPCPP
4. RVWEGGRGGDGC
5. SRFDAGYRGTIT
6. WCFGSLLIRFSL

[0.692, 0.699, 0.696, 0.676, 0.68, 0.458]

----------
- System: Saccharomyces cerevisiae
- ASSAY METHOD TEXT: protein stability index of tFT-peptide fusion (C-terminal peptide) (PSI (0-1 scale)); higher = more stable (slower turnover)
- ASSAY SETUP: genetic background: wild type; temperature: 30 C
Classify as follows. Reported protein stability index greater than or equal to 0.3: yes (1). Reported protein stability index below: no (0).

Please review the following examples before continuing.
INSERT INTO measurements (sequence_string, class_assignment) VALUES
  ('LCIYNFGWWFCV', 'no (0)'),
  ('VFLACSMTGGDA', 'yes (1)'),
  ('QNVKRIVRHMLT', 'no (0)'),
  ('FLFSVVFFFFSL', 'yes (1)');

Could you verify whether the entry ACFLFPSHLLIS shows protein stability index of no less than 0.3? no (0)

Could you verify whether the entry FMPFSLLALFVW shows protein stability index of no less than 0.3? no (0)

protein stability index >= 0.3 for WCFFFVGCCCFG ? yes (1)

Quick check: does LLMFWLSIWFWG have protein stability index greater than or equal to 0.3? no (0)

Would you say VEIKSKRMLVVI shows protein stability index at minimum 0.3? yes (1)
